- target: D44 peptide (derived from the dynamin1 PRD, bears motifs A and B)
- experimentalDetails: SPR; biotinylated peptides immobilised (50-90 RU) on biotin CAPture chips, SUMO-amphSH3 as analyte; 25 °C; 10 mM sodium phosphate pH 7.4, 150 mM NaCl, 0.01% Tween-20; steady-state (equilibrium) analysis
measurementKind: pKd
// field semantics: pKd = negative decimal log of concentration (mol/L)

Return pKd for the following binder: SUMO-amphSH3 (SH3 domain of murine amphiphysin1 fused to the small ubiquitin-like modifier) (domain or fragment) TQELPPGFLYKVETLHDFEAANSDELNLQRGDVVLVVPSDSEADQDAGWLVGVKESDWLQYRDLATYKGLFPENFTRRLE 4.43
